The measurements presented in this section are drawn from patent US11203592B2.

- TGT: indoleamine 2,3-dioxygenase (IDO) (Homo sapiens, UniProt P14902)
- Construct: endogenous in cells
- Sequence (P14902 whole entry): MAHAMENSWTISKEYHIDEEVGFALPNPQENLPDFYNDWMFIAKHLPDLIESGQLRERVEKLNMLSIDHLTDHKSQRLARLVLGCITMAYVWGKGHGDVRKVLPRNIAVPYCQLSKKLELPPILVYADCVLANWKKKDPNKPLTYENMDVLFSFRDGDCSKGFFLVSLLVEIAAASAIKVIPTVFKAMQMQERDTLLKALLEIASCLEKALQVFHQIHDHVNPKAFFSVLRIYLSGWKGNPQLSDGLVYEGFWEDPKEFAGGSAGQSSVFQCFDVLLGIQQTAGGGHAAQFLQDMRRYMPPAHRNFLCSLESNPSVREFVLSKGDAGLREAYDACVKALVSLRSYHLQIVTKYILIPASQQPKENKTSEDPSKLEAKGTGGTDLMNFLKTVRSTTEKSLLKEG
- PROTOCOL DETAILS: HeLa cell-based indoleamine 2,3-dioxygenase (IDO) assay, kynurenine production
- PROTOCOL CONDITIONS: HeLa cells, IFNγ 25 ng/mL, 48 hour incubation, kynurenine absorbance at 480 nm
pIC50: −log10 of the molar value.
RECORDED METRIC: pIC50

Some solved cases for reference:
>>> value_reported("CC(C(=O)Nc1ccc(Cl)cc1)[C@H]1CC[C@@]2(CC1)OCc1ccccc12 (mixture of isomers)")
7.30
>>> value_reported("O=C(C[C@H]1CC[C@@]2(CC1)OCc1ccccc12)NC12CC3CC(CC(C3)C1)C2")
6.72
>>> value_reported("CC(C(=O)NC12CC3CC(CC(C3)C1)C2)[C@H]1CC[C@@]2(CC1)OCc1ccccc12 (mixture of isomers)")
6.70
>>> value_reported("CC(C(=O)Nc1ccc(Cl)cc1)[C@H]1CC[C@]2(CC1)OCc1ccccc12 (mixture of isomers)")
7.04

P. O=C(C[C@H]1CC[C@]2(CC1)OCc1ccccc12)Nc1ccc(Cl)cc1
Q. CC(NC(=O)C12CC3CC(CC(C3)C1)C2)[C@H]1CC[C@]2(CC1)OCc1ccccc12 (mixture of isomers)
R. O=C(C[C@H]1CC[C@@]2(CC1)OCc1ccccc12)Nc1ccc(Cl)cc1
S. CC(NC(=O)c1ccc(Cl)cc1)[C@H]1CC[C@]2(CC1)OCc1ccccc12 (mixture of isomers)
**Query** Task field, ranking: reported pIC50, descending order. Hello, could you send the labels back in the order asked? Thank you.
**Result** S, R, P, Q
(S: 7.35, R: 6.94, P: 6.66, Q: 5.84)
